READOUT NAME: melting point

// below: answered compounds
O=C(O)Cc1ccccc1OCCCCc1cc(-c2ccc(C(F)(F)F)cc2)no1	122 to 123 °C
C=C1CCCCCCCSC[C@@H](C(=O)O)NC1=O	184 to 186 °C
O=[N+]([O-])c1ccc(N2CCN(CCO)CC2)cc1	98 to 99 °C

Query: Reported melting point, compound O=S(=O)(Nc1ccc(C2=NC3(O)c4ccc(Cl)cc4CC3S2)cc1)c1ccc(Cl)cc1 (stereo unspecified) : ____
Reply: 116 °C

Query: Continue with `CCCCc1ccc(CC(=O)c2ccccc2)cc1`
Reply: 53 to 55 °C

Query: Continue with `CC(=C1SCCCS1)c1ccc(Sc2ccc(O)cc2)cc1`
Reply: 113 to 114 °C

Query: Continue with `CCOC(=O)CCCCCOc1ccc(C=O)cc1`
Reply: 33 to 35 °C

Query: Continue with `CCCCOc1c(CNC(=O)OC(C)(C)C)n(CC(C)C)c(=O)c2ccc(-c3noc(=O)[nH]3)cc12`
Reply: 223 to 224 °C

Query: Continue with `CC(=O)c1ccn2c(C)c(C)nc2c1N`
Reply: 195 to 197 °C

Query: Continue with `O=C(O)CCc1c(C=C2C(=O)Nc3ccccc32)[nH]c2c1CCCC2`
Reply: 263 to 265 °C

Query: Continue with `CNC(=O)c1cnn(-c2ccc(Cl)cc2Cl)c1C(F)(F)F`
Reply: 143 to 144 °C
